target: KIX domain of CBP (UniProt P45481 586-665); assay: dissociation kinetics by competition; FITC-pKID displaced from KIX by unlabeled competitor cMybTAD; kdiss = asymptote of the observed dissociation rate against competitor concentration; conditions: both partners purified
Sequence (P45481 586-665): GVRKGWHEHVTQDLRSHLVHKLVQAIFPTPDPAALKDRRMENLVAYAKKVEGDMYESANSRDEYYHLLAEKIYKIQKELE
Non-standard residues stand in square brackets, D forms with d. No end group written: not given here. *: point of attachment. FITC = O=C1OC2(c3ccc(O)cc3Oc3cc(O)ccc32)c2ccc(NC(=S)*)cc21; pS = N[C@@H](COP(=O)(O)O)C(=O)O
property_name: log10 koff (log10 of the value in s⁻¹)
Heads up: the numbers are on a log10 scale; they represent koff in s⁻¹.

A selection of reference data follows.
binder: {FITC}-DSVTDSQKAREILSRRP[pS]YRKILNDLSSDAP (peptide, UniProt P15337-1 116-146, looked up, source: synthetic peptide, bought: Biomatik) [FITC-pKID R124A]
log10 koff: -0.29
--
binder: {FITC}-DSVTDSQKRREILSRRP[pS]YRKILNALSSDAP (peptide, UniProt P15337-1 116-146, looked up, source: synthetic peptide, bought: Biomatik) [FITC-pKID D140A]
log10 koff: 0.31
--
binder: {FITC}-DSVTDSQKRREILSRRP[pS]YRKILNDLSSDAP (peptide, UniProt P15337-1 116-146, looked up, also called wtFITCpKID; source: synthetic peptide, bought: Biomatik) [FITC-pKID wild-type (CREB residues 116-146, phosphorylated at Ser133)]
log10 koff: -0.09
--
binder: {FITC}-DSVTDSQKRAEILSRRP[pS]YRKILNDLSSDAP (peptide, UniProt P15337-1 116-146, looked up, source: synthetic peptide, bought: Biomatik) [FITC-pKID R125A]
log10 koff: 0.34
--
binder: {FITC}-DSVTDAQKRREILSRRP[pS]YRKILNDLSSDAP (peptide, UniProt P15337-1 116-146, looked up, source: synthetic peptide, bought: Biomatik) [FITC-pKID S121A]
log10 koff: -0.15

Field request: log10 koff | item: {FITC}-DSVTDSQKRREILSRAP[pS]YRKILNDLSSDAP (peptide, UniProt P15337-1 116-146, looked up, source: synthetic peptide, bought: Biomatik) [FITC-pKID R131A]
0.88
